Could you please report measured Ki for the items listed next?
# value in µM; strip the unit string

GET Ki where system = Muscarinic acetylcholine receptor M3 (Homo sapiens, UniProt P20309) and item = `O=C1CCc2ccccc2N1CCCN1CCC(Cc2ccccc2)CC1` 3.02

GET Ki where system = Muscarinic acetylcholine receptor M3 (Homo sapiens, UniProt P20309) and item = `O=C1CCc2ccccc2N1CCCN1CCN(c2ccccc2)CC1` 17.8

GET Ki where system = Muscarinic acetylcholine receptor M3 (Homo sapiens, UniProt P20309) and item = `CCCCN1CCN(CCCN2C(=O)CCc3ccccc32)CC1` 7.08

GET Ki where system = Muscarinic acetylcholine receptor M3 (Homo sapiens, UniProt P20309) and item = `O=C1CCc2ccccc2N1CCCN1CCC(c2ccccc2)CC1` 4.68

---

- assay.comment: Tmax in CD1 mouse plasma at 3 mg/kg, sc by UPLC-MS analysis
- Assay type: ADME, organism-based
result.type: Tmax (min)
# value in min; strip the unit string

Output Tmax of `O=C1CCc2ccccc2N1CCCN1CCN(c2ccccc2)CC1` 15

---

- assay.comment: Ratio of fAUC in CD1 mouse brain to fAUC in CD1 mouse plasma at 3 mg/kg, sc
- Format: ADME, organism-based
- conditions: read-out: K(p,uu,brain)
result.type: Kp uu
Write no unit; give the number alone.

Output Kp uu of `O=C1CCc2ccccc2N1CCCN1CCN(c2ccccc2)CC1` 4.05

---

- assay.comment: Fraction unbound in mouse plasma at 0.5 uM by equilibrium dialysis method
- Assay type: ADME, cell-free
result.type: fraction unbound at 0.5 µM
Write no unit; give the number alone.

Output fraction unbound at 0.5 µM of `O=C1CCc2ccccc2N1CCCN1CCN(c2ccccc2)CC1` 0.097

Output fraction unbound at 0.5 µM of `O=C1CCc2ccccc2N1CCCN1CCC(Cc2ccccc2)CC1` 0.1

---

- system: Muscarinic acetylcholine receptor M1 (Homo sapiens, UniProt P11229)
- Sequence (P11229 whole entry): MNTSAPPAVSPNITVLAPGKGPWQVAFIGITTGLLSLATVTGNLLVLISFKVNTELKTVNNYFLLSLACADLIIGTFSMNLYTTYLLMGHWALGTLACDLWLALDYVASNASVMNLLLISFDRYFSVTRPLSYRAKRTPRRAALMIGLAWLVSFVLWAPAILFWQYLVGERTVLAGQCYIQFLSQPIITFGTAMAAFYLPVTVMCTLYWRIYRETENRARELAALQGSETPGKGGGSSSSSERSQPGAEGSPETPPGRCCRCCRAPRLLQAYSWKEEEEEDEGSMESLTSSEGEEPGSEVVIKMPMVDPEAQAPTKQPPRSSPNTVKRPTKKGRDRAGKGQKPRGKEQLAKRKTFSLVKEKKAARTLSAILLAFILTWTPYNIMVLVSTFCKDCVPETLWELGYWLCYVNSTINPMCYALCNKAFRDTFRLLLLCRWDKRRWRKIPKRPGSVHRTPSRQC
Could you please report measured pKi for the items listed next?
pKi is defined as minus the log10 of a concentration measured in mol/L.

Output pKi of `O=C1CCc2ccccc2N1CCCN1CCC(Cc2ccccc2)CC1` 6.44

Output pKi of `CCCC1CCN(CCCN2C(=O)CCc3ccccc32)CC1` 5.60

Output pKi of `O=C1CCc2ccccc2N1CCCN1CCN(c2ccccc2)CC1` 5.37

Output pKi of `CCCCCC1CCN(CCCN2C(=O)CCc3ccccc32)CC1` 6.31

Output pKi of `CC1CCN(CCCN2C(=O)CCc3ccccc32)CC1` 4.92

---

Could you please report measured Ratio Ki for the items listed next?
- Species: Homo sapiens
- assay.comment: Selectivity ratio of Ki for human dopamine D2 receptor to Ki for human dopamine D4 receptor
Write no unit; give the number alone.

Output Ratio Ki of `O=C1CCc2ccccc2N1CCCN1CCC(c2ccccc2)CC1` 234

Output Ratio Ki of `O=C1CCc2ccccc2N1CCCN1CCC(CCCCCO)CC1` 269

Output Ratio Ki of `COc1ccc(Cl)cc1OC[C@@H]1CN(Cc2ccc(Cl)cc2)CCO1` 48

Output Ratio Ki of `O=C1CCc2ccccc2N1CCCN1CCC(CCc2ccccc2)CC1` 135

Output Ratio Ki of `O=C1CCc2ccccc2N1CCCN1CCN(CCc2ccccc2)CC1` 200

Output Ratio Ki of `O=C1CCc2ccccc2N1CCCN1CCC(CCCO)CC1` 9

Output Ratio Ki of `CC1CCN(CCCN2C(=O)CCc3ccccc32)CC1` 17

Output Ratio Ki of `CCCC1CCN(CCCN2C(=O)CCc3ccccc32)CC1` 174

Output Ratio Ki of `CCCCCC1CCN(CCCN2C(=O)CCc3ccccc32)CC1` 380

Output Ratio Ki of `CCCCN1CCN(CCCN2C(=O)CCc3ccccc32)CC1` 16

Output Ratio Ki of `CC(C)Oc1cccnc1N(C)C1CCN(Cc2ccc(I)cc2)CC1` 1720

Output Ratio Ki of `O=C1CCc2ccccc2N1CCCN1CCC(Cc2ccccc2)CC1` 724

Output Ratio Ki of `O=C1CCc2ccccc2N1CCCN1CCN(c2ccccc2)CC1` 380

Output Ratio Ki of `CCCCC1CCN(CCCN2C(=O)CCc3ccccc32)CC1` 691

Output Ratio Ki of `O=C1CCc2ccccc2N1CCCN1CCC(CCCCCCCO)CC1` 9

---

- system: Muscarinic acetylcholine receptor M1 (Homo sapiens)
- assay.comment: Antagonist activity at human SP/Myc epitope-tagged muscarinic M1 receptor expressed in HEK293T cells assessed as inhibition of carbachol-induced RLuc8-fused Galphaq activation preincubated for 15 mins followed by carbachol induction measured after 2 mins by BRET assay
- Format: cell-based, HEK-293T
result.type: IC50
Don't forget the unit after the value.

Output IC50 of `O=C1CCc2ccccc2N1CCCN1CCC(Cc2ccccc2)CC1` 2630 nM

---

Target chain: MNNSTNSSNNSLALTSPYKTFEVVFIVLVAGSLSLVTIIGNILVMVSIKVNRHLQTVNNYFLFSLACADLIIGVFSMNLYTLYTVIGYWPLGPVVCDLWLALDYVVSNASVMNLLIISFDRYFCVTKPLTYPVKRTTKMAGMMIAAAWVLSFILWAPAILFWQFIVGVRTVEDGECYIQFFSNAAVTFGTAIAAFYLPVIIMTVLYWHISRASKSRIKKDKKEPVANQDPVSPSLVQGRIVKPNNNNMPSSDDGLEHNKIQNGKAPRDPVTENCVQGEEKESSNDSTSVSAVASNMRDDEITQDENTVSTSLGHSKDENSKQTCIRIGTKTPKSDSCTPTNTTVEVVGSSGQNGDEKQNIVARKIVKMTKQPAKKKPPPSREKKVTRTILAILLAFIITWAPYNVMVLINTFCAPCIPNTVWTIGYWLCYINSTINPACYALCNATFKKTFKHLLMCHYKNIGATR
pKi: −log10 of the molar value.
Record Fulfilled whenever pKi is at 6 or higher; record Not fulfilled when lower.

Decide: pKi of `O=C1CCc2ccccc2N1CCCN1CCN(c2ccccc2)CC1` >= 6? Not fulfilled

Decide: pKi of `CCCC1CCN(CCCN2C(=O)CCc3ccccc32)CC1` >= 6? Not fulfilled

Decide: pKi of `O=C1CCc2ccccc2N1CCCN1CCC(c2ccccc2)CC1` >= 6? Not fulfilled

Decide: pKi of `CCCCCC1CCN(CCCN2C(=O)CCc3ccccc32)CC1` >= 6? Fulfilled

---

Could you please report measured pKi for the items listed next?
- system: D(2) dopamine receptor (Homo sapiens, UniProt P14416)
- Sequence (P14416 whole entry): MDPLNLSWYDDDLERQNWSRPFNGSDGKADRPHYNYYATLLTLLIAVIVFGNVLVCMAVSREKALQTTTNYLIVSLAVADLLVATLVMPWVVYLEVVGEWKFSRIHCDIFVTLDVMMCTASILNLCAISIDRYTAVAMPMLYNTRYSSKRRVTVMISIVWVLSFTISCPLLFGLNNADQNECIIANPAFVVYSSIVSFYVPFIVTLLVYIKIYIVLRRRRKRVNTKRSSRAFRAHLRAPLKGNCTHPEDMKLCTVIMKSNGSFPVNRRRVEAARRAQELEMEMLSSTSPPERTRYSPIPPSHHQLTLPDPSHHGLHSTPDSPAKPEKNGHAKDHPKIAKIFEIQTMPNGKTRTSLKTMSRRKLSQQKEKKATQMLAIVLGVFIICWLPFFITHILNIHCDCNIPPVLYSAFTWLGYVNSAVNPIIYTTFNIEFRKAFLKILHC
- assay.comment: Displacement of [3H]N-methylspiperone from human dopamine D2 receptor expressed in HEK293 cell membranes after 1 hr by scintillation counting method
pKi is defined as minus the log10 of a concentration measured in mol/L.

Output pKi of `O=C1CCc2ccccc2N1CCCN1CCN(c2ccccc2)CC1` 5.96

Output pKi of `O=C1CCc2ccccc2N1CCCN1CCC(CCc2ccccc2)CC1` 6.54

Output pKi of `CCCCC1CCN(CCCN2C(=O)CCc3ccccc32)CC1` 6.17

Output pKi of `CCCCN1CCN(CCCN2C(=O)CCc3ccccc32)CC1` 5.29

Output pKi of `CCCCCC1CCN(CCCN2C(=O)CCc3ccccc32)CC1` 6.28

Output pKi of `O=C1CCc2ccccc2N1CCCN1CCC(Cc2ccccc2)CC1` 6.04

Output pKi of `O=C1CCc2ccccc2N1CCCN1CCC(CCCCCCCO)CC1` 6.03

Output pKi of `O=C1CCc2ccccc2N1CCCN1CCC(CCCO)CC1` 6.18

Output pKi of `O=C1CCc2ccccc2N1CCCN1CCC(CCCCCO)CC1` 5.93

Output pKi of `CC1CCN(CCCN2C(=O)CCc3ccccc32)CC1` 5.35

Output pKi of `O=C1CCc2ccccc2N1CCCN1CCN(CCc2ccccc2)CC1` 5.24
